- Test system: Voltage-gated potassium channel subunit beta-2 (Rattus norvegicus) (UniProt P62483)
- Sequence (P62483 whole entry, looked up): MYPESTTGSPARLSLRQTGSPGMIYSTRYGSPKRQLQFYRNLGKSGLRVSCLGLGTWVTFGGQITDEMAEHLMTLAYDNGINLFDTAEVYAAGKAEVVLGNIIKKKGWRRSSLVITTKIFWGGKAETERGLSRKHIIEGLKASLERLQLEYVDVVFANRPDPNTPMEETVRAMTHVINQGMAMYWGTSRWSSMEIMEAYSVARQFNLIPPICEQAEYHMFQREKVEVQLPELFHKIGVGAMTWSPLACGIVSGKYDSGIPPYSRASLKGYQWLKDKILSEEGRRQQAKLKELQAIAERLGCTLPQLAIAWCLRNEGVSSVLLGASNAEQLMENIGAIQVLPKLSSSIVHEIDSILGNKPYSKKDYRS
- Assay protocol: inhibitors of rat Kvbeta2 reductase activity – biochemical, NADPH fluorescence, primary screen (AID 622);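 also: slope of raw intensity against log time taken from 70 to 1610 s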
- Setup conditions: recombinant KvBeta, 4-cyanobenzaldehyde reduction, at 10 µM, stronger effect = higher value
Measurement kind: fluorescence slope
Give bare numbers.

> print(dat)
                                 compound                               test.system    measurement.kind  result
1  CCOc1ccccc1CNC(=O)CCN1C(=O)COc2ccccc21  Voltage-gated potassium channel subunit beta-2 (Rattus norvegicus) (UniProt P62483)  fluorescence slope  -0.379

Provide each entry's fluorescence slope from the list below.
1. Cc1cc(=O)[nH]c(SCc2nc3ncccn3c2Br)n1
2. O=C(Nc1ccc(Cl)cn1)c1cccnc1

-0.27
-0.473

====

- Assay protocol: endothelial E-selectin expression blockers – imaging, HUVEC, immunofluorescence, MLSMR starter and 10KST1 sets, primary screen (AID 487);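 also: 100% = median nuclei count of all wells on the same plate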
- Setup conditions: HUVEC TNFalpha-induced E-selectin immunofluorescence imaging, at 2 µM; measured here: cell number, toxicity
Measurement kind: nuclei count
Lab note: write values as number then unit, every time.

Look over these answered cases.
> print(dat)
                                   compound  result
1              CN(C)c1ccc(/C=C/c2ccncc2)cc1   87.8%
2  CCN(CC)S(=O)(=O)c1ccc2oc(SCc3ccc(F)cc3)nc2c1    110%
3         O=C(O)CN1C(=O)C2(OCCCO2)c2ccccc21    124%

Now take the following compound into account.
Endpoint output: nuclei count of CCC(C)(C(=O)NC1CCCCC1)N(CC1CCCO1)C(=O)c1ccccn1 (centres undefined) . Value? 104%

====

- Assay protocol: reduction of polyQ htt aggregates in cells – imaging, exon1htt(103Q)mCFP cells, high-content imaging, primary screen (AID 483);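 also: compound exposure lasted 3 days before fixation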
- Setup conditions: exon1htt(103Q)mCFP cell line, aggregate imaging, at 2 µM
Activity calls are given as the source filed them.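 Rule for the calls: active = visual image review flags a hit and inhibition of aggregation exceeds 20%; inconclusive = visual hit but inhibition at or below 20%; inactive = no hit on visual image review.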
Bench note: report the call from active, inactive

> print(dat)
                            molecule     group
1  O=C(O)CN1C(=O)C2(OCCCO2)c2ccccc21  inactive

Record lookup: outcome of this test for COc1ccc2cc3cc(C(=O)NCC4CCCO4)oc3nc2c1 (configuration not stated) ? inactive

Hey, what did the test say about "CCCn1cnc2c(cnn2-c2ccc(F)cc2)c1=O" ? inactive

I'd appreciate the recorded outcome for Cc1cccc(C2CC(c3ccc(Br)cc3)Nc3nc(N)nn32)c1 (configuration not stated) from this test. inactive

What classification did "O=C(O)CCc1ccc(-c2ccc(F)cc2)n1CC(=O)O" end up with in this test? inactive

Please indicate how the test categorized "O=C(Cn1nc(Cc2ccncc2)c2ccccc2c1=O)N1CCc2ccccc2C1" . inactive

Given "CCOCCCn1c(=NC(C)=O)c(C(=O)OCC)cc2c(=O)n3ccccc3nc21" , state the outcome it received in this test. inactive

State the result this test recorded for "Cc1cc(NC(=O)c2cnn3c(C(F)F)cc(C4CC4)nc23)no1" . inactive

Answer briefly: the call reported for CC(C)CCNC(=O)C(C)N(Cc1ccc(F)cc1)C(=O)c1ccc(CN2CCCCC2)o1 (configuration not stated) in this assay. active

====

Exercise: state measured NADPH fluorescence slope for each of the compounds provided.
- Test system: Voltage-gated potassium channel subunit beta-2 (Rattus norvegicus)
- Assay protocol: enhancers of rat Kvbeta2 NADPH turnover – biochemical, NADPH fluorescence, primary screen (AID 623);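 also: fluorescence intensity change per second fitted from 20 to 320 s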
- Setup conditions: Recombinant KvBeta, NADPH fluorescence decrease slope, 10 min; at 10 µM; stronger effect = lower value
Activity calls are given as the source filed them.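 Rule for the calls: active = NADPH fluorescence slope more negative than the mean of all samples by about 3 SD, 99.7% confidence; inactive = the rest.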

> print(dat)
                                 mol.smiles                               test.system          measurement.kind              result
1  Cc1ccc(NC(=O)CSc2nnc(-c3cnccn3)n2Cc2ccco2)cc1C  Voltage-gated potassium channel subunit beta-2 (Rattus norvegicus)  NADPH fluorescence slope  3.1e-05 (inactive)

Record NADPH fluorescence slope for all entries; do not skip any.
1. CCN(CC(=O)Nc1c(C(=O)OC)[nH]c2ccccc12)c1ccc2c(c1)OCO2
2. O=C(c1ccccc1)N1CCN(Cc2ccccc2Br)CC1

["-6.7e-05 (inactive)", "-4.5e-05 (inactive)"]

Ref: PubChem BioAssay
